Target: D(1A) dopamine receptor (Rattus norvegicus, UniProt P18901)
Sequence (P18901 whole entry): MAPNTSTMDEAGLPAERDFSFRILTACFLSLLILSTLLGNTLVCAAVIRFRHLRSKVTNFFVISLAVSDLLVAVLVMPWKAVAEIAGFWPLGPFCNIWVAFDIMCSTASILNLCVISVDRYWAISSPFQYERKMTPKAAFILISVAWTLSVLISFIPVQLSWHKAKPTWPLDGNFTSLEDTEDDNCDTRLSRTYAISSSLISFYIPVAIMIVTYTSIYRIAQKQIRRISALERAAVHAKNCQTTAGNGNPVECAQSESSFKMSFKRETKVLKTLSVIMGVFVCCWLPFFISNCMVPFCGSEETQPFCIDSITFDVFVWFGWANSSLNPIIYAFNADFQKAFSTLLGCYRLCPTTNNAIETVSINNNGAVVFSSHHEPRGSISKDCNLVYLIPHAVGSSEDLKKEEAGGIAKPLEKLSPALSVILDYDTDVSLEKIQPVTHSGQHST
Test: Inhibitory concentration against rat striatal dopamine (D1) sensitive adenylate cyclase activity
pIC50: −log10 of the molar value.

{"columns": ["Compound", "pIC50"],
 "data": [
  ["CCC(=O)OC1(c2ccccc2)CCN(CCCC(=O)c2ccc(F)cc2)C[C@H]1C (some centres not stated)", 5.49],
  ["C[C@@H]1CN(CCCC(=O)c2ccc(F)cc2)CCC1(O)c1ccccc1 (some centres not stated)", 5.58],
  ["CCC(=O)OC1(c2ccccc2)CCN(CCCC(=O)c2ccc(F)cc2)C[C@@H]1C (some centres not stated)", 5.59],
  ["O=C(CCCN1CCC(O)(c2ccccc2)CC1)c1ccc(F)cc1", 5.55],
  ["CCC(=O)OC1(c2ccccc2)CCN(CCCC(=O)c2ccc(F)cc2)CC1", 5.62],
  ["O=C(CCCN1CCC(c2ccccc2)CC1)c1ccc(F)cc1", 5.12],
  ["C[C@H]1CN(CCCC(=O)c2ccc(F)cc2)CCC1(O)c1ccccc1 (some centres not stated)", 5.78]
]}

The values you see were collected from ChEMBL document CHEMBL1123890.
